# test_summary: Inhibition of soybean lipoxygenase
# Design: species or system Glycine max
pIC50: −log10 of the molar value.
readout_kind: pIC50

>>> readout_value("COc1cc(C)c(/C=C/C(C)=C/C=C/C(C)=C/C(=O)NCCc2ccc(O)c(O)c2)c(C)c1C")
4.06

1: COc1cc(C)c(/C=C/C(C)=C/C=C/C(C)=C/C(=O)NCc2ccccc2)c(C)c1C
2: O=C(CCc1ccc(O)c(O)c1)NCCCNCCCCNCCCNC(=O)CCc1ccc(O)c(O)c1
3: N[C@@H](Cc1ccc(O)c(O)c1)C(=O)NCCc1ccc(O)c(O)c1
# sort list by recorded pIC50, greatest to least Note for the reader: the ranking is given by listing the labels in the order requested.
2, 1, 3
(2: 5.02, 1: 4.39, 3: 4.09)

###

# test_summary: Antioxidant activity of the compound assessed as reducing activity of DPPH at 0.1 mM after 60 mins
# Format: functional
# Parameters: scale not given: the % may be the effect or the level left
Activity calls are given as the source filed them. No cut-off for these calls is given here.
readout_kind: Activity

See these solved cases before continuing.
>>> readout_value("Cc1oc2c(C)c3oc(=O)cc(C)c3cc2c1/C=C/C(=O)NCCCNCCCCNCCCNC(=O)/C=C/c1c(C)oc2c(C)c3oc(=O)cc(C)c3cc12")
"54%"
>>> readout_value("COc1cc(C)c(/C=C/C(C)=C/C=C/C(C)=C/C(=O)O)c(C)c1C")
"inactive"
>>> readout_value("CC1=C(/C=C/C(C)=C/C=C/C(C)=C/C(=O)NCCCNCCCCNCCCNC(=O)/C=C/c2c(C)oc3c(C)c4oc(=O)cc(C)c4cc23)C(C)(C)CCC1")
"38%"
>>> readout_value("COc1cc(C)c(/C=C/C(C)=C/C=C/C(C)=C/C(=O)NCCCNCCCCNCCCNC(=O)/C=C/c2c(C)oc3c(C)c4oc(=O)cc(C)c4cc23)c(C)c1C")
"inactive"
>>> readout_value("CC1=C(/C=C/C(C)=C/C=C/C(C)=C/C(=O)NCCCCCCCCCCCCNC(=O)/C=C(C)/C=C/C=C(C)/C=C/C2=C(C)CCCC2(C)C)C(C)(C)CCC1")
"13.4%"
>>> readout_value("O=C(O)/C=C/c1ccc(O)c(O)c1")
"6%"
>>> readout_value("NCCc1ccc(O)c(O)c1")
"86%"
>>> readout_value("COc1cc(C)c(/C=C/C(C)=C/C=C/C(C)=C/C(=O)NCCc2ccc(O)c(O)c2)c(C)c1C")
"79%"

// Input: `COc1ccc(/C=C/C(=O)NCCCNCCCCNCCCNC(=O)/C=C/c2ccc(OC)c(OC)c2)cc1OC` . Output its Activity only.
58%

// Input: `COc1cc(C)c(/C=C/C(C)=C/C=C/C(C)=C/C(=O)NCc2ccccc2)c(C)c1C` . Output its Activity only.
2%

###

# Tested on: Glycine max
# test_summary: Inhibition of soybean lipoxygenase at 0.1 mM
readout_kind: inhibition (%)

>>> readout_value("N[C@@H](Cc1ccc(O)c(O)c1)C(=O)O")
23

I: COc1cc(C)c(/C=C/C(C)=C/C=C/C(C)=C/C(=O)O)c(C)c1C
II: N[C@@H](Cc1ccc(O)c(O)c1)C(=O)NCCCNCCCCNCCCNC(=O)[C@@H](N)Cc1ccc(O)c(O)c1
III: COc1cc(C)c(/C=C/C(C)=C/C=C/C(C)=C/C(=O)NCCCNCCCCNCCCNC(=O)/C=C(C)/C=C/C=C(C)/C=C/c2c(C)cc(OC)c(C)c2C)c(C)c1C
Form: Sort by [inhibition] Order [ ascending ] Note for the reader: the ranking is given by listing the labels in the order requested.
I, II, III

###

# test_summary: Antioxidant activity against AAPH-induced lipid peroxidation assessed as inhibition of conjugated diene hydroperoxide production at 0.1 mM by UV spectrophotometry
# Type: functional
readout_kind: inhibition

See these solved cases before continuing.
>>> readout_value("CC1=C(/C=C/C(C)=C/C=C/C(C)=C/C(=O)O)C(C)(C)CCC1 [TRETINOIN]")
"75%"
>>> readout_value("COc1cc(C)c(/C=C/C(C)=C/C=C/C(C)=C/C(=O)NCCCNCCCCNCCCNC(=O)/C=C/c2c(C)oc3c(C)c4oc(=O)cc(C)c4cc23)c(C)c1C")
"31%"

Consider now this further compound.
// Input: O=C(CCc1ccc(O)c(O)c1)NCCCNCCCCNCCCNC(=O)CCc1ccc(O)c(O)c1 [KUKOAMINE A] . Output its inhibition only.
72%

###

# test_summary: Antioxidant activity against AAPH-induced lipid peroxidation assessed as inhibition of conjugated diene hydroperoxide production at 0.1 mM by UV spectrophotometry
# Format: functional
readout_kind: inhibition (%)
Give a bare numeral; the unit % is implied.

See these solved cases before continuing.
>>> readout_value("N[C@@H](Cc1ccc(O)c(O)c1)C(=O)O")
65
>>> readout_value("Cc1oc2c(C)c3oc(=O)cc(C)c3cc2c1/C=C/C(=O)OC(C)(C)C")
80
>>> readout_value("COc1ccc(/C=C/C(=O)NCCCNCCCCNCCCNC(=O)/C=C/c2ccc(OC)c(OC)c2)cc1OC")
100
>>> readout_value("COc1ccc(/C=C/C(=O)O)cc1OC")
56

// Input: `CC1=C(/C=C/C(C)=C/C=C/C(C)=C/C(=O)NCCCNCCCCNCCCNC(=O)/C=C(C)/C=C/C=C(C)/C=C/C2=C(C)CCCC2(C)C)C(C)(C)CCC1` . Output its inhibition only.
58

###

# test_summary: Cytotoxicity against RAMEC assessed as cell viability after 24 hrs by MTT assay
# measurement_conditions: Rattus norvegicus
readout_kind: IC50 (µM)
Give a bare numeral; the unit µM is implied.

>>> readout_value("CC1=C(/C=C/C(C)=C/C=C/C(C)=C/C(=O)NCCCCCCCCCCCCNC(=O)/C=C(C)/C=C/C=C(C)/C=C/C2=C(C)CCCC2(C)C)C(C)(C)CCC1")
2.8
>>> readout_value("O=C(CCc1ccc(O)c(O)c1)NCCCNCCCCNCCCNC(=O)CCc1ccc(O)c(O)c1")
3.5

// Input: `COc1ccc(/C=C/C(=O)NCCCNCCCCNCCCNC(=O)/C=C/c2ccc(OC)c(OC)c2)cc1OC` . Output its IC50 only.
11.3

// Input: `Cc1oc2c(C)c3oc(=O)cc(C)c3cc2c1/C=C/C(=O)OC(C)(C)C` . Output its IC50 only.
2.9

###

Activity listing for selected compounds.
# test_summary: Antioxidant activity of the compound assessed as reducing activity of DPPH at 0.1 mM after 60 mins
# Type: functional
# Parameters: scale not given: the % may be the effect or the level left
Give a bare numeral; the unit % is implied.

See these solved cases before continuing.
>>> readout_value("CC(Cc1ccc(O)c(O)c1)C(C)Cc1ccc(O)c(O)c1 (stereo not given)")
83
>>> readout_value("CC1=C(/C=C/C(C)=C/C=C/C(C)=C/C(=O)O)C(C)(C)CCC1")
23
>>> readout_value("COc1ccc(/C=C/C(=O)NCCOCCOC(=O)/C=C/C(=O)n2cc(C(=O)Nc3ccccc3)c3ccccc32)cc1OC")
12
>>> readout_value("COc1ccc(/C=C/C(=O)O)cc1OC")
10

Consider now this further compound.
// Input: `N[C@@H](Cc1ccc(O)c(O)c1)C(=O)NCCc1ccc(O)c(O)c1` . Output its Activity only.
92

###

# Test system: Glycine max
# test_summary: Inhibition of soybean lipoxygenase at 0.1 mM
Activity calls are given as the source filed them. The calls are words filed in the database; no cut-off is given here.
readout_kind: inhibition

See these solved cases before continuing.
>>> readout_value("CC1=C(/C=C/C(C)=C/C=C/C(C)=C/C(=O)NCCCCCCCCCCCCNC(=O)/C=C(C)/C=C/C=C(C)/C=C/C2=C(C)CCCC2(C)C)C(C)(C)CCC1")
"23%"
>>> readout_value("Cc1oc2c(C)c3oc(=O)cc(C)c3cc2c1/C=C/C(=O)O")
"9%"
>>> readout_value("COc1ccc(/C=C/C(=O)O)cc1OC")
"23%"
>>> readout_value("CC1=C(/C=C/C(C)=C/C=C/C(C)=C/C(=O)NCCCNCCCCNCCCNC(=O)/C=C/c2c(C)oc3c(C)c4oc(=O)cc(C)c4cc23)C(C)(C)CCC1")
"43%"
>>> readout_value("O=C(O)CCc1ccc(O)c(O)c1")
"16%"
>>> readout_value("Cc1oc2c(C)c3oc(=O)cc(C)c3cc2c1/C=C/C(=O)NCCCNCCCCNCCCNC(=O)/C=C/c1c(C)oc2c(C)c3oc(=O)cc(C)c3cc12")
"57%"

// Input: `CCCCNC(=O)/C=C/c1c(C)oc2c(C)c3oc(=O)cc(C)c3cc12` . Output its inhibition only.
24%

// Input: `CC1=C(/C=C/C(C)=C/C=C/C(C)=C/C(=O)NCCCNCCCCNCCCNC(=O)/C=C(C)/C=C/C=C(C)/C=C/C2=C(C)CCCC2(C)C)C(C)(C)CCC1` . Output its inhibition only.
76%

// Input: CC1=C(/C=C/C(C)=C/C=C/C(C)=C/C(=O)O)C(C)(C)CCC1 [TRETINOIN] . Output its inhibition only.
inactive

// Input: `NCCCNCCCCNCCCN` . Output its inhibition only.
inactive

Measured values drawn from ChEMBL document CHEMBL1629424 for this set.
